target or system: Cy5-labelled Mcl1 (amino acids 171-321) C286S protein (UniProtKB Q07820) (Homo sapiens (Human), UniProt Q07820, C286S)
Sequence (Q07820 171-321 C286S): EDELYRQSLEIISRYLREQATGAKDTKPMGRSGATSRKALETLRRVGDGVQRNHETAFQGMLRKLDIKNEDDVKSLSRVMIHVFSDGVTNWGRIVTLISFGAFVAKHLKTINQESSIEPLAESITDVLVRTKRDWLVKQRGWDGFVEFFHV
experiment notes: Inhibition of Mcl-1 by the fluorescence quenching assay (Example A, Method B)
Assay type: binding
pKi: −log10 of the molar value.
recorded metric: pKi

- compound: "CC(O)c1ccc2c(c1)[C@]1(CC[C@@](Nc3cccc(Cl)c3)(C(=O)O)CC1)[C@@H](C[C@@H](C)COc1ccnc3c1[C@H](C)CC[C@H]3F)C2 (single isomer, unassigned) [Example 863]"
  reading: 9.42
- compound: "O=C(O)[C@]1(Nc2cccc(Cl)c2)CC[C@@]2(CC1)c1ccccc1C[C@@H]2CCCOc1cccc2[nH]ccc12 [Example 486]"
  reading: 7.09
- compound: "C[C@@H](COc1ccnc2c1[C@H](C)CCC2)C[C@H]1Cc2ccc(CO)cc2[C@]12CC[C@@](Nc1cccc(Cl)c1)(C(=O)O)CC2 [Example 870]"
  reading: 10.29
- compound: "C[C@@H](COc1ccnc2ccsc12)CC1=Cc2ccccc2[C@]12CC[C@@](Nc1cccc(Cl)c1)(C(=O)O)CC2 [Example 589]"
  reading: 8.08
- compound: "CC[C@H]1COc2cc3c(cc2O1)[C@]1(CC[C@@](Nc2cccc(Cl)c2)(C(=O)O)CC1)[C@@H](C[C@@H](C)COc1ccnc2c1[C@H](C)CCC2)C3 [Example 977]"
  reading: 10.64
- compound: "CC(CC1Cc2ccccc2[C@]12CC[C@@](Nc1cccc(Cl)c1)(C(=O)O)CC2)C(C)Oc1ccnc2c1CCC2 (single isomer, unassigned) [Example 614]"
  reading: 6.91
